Data provenance is PubChem BioAssay (NCI).

tested on: HCT-116 colon; experiment: NCI-60 one-dose screen, 48 h (100 = growth as untreated, 0 = no growth, -100 = all killed); settings: 10 µM
About 83,000 compounds went through this panel and 20% of them were active in at least one assay; those are over-represented in the sample as a whole.
I'd appreciate it if you could supply growth values for the items below.
Give bare numbers, in %.

These solved cases illustrate the format of a correct answer.
{"columns": ["compound", "target-of-assay", "growth, %"],
 "data": [
  ["C=CC[N+](C)(C)C", "HCT-116 colon", 104],
  ["O=C(O)CCC(=O)OC(C1CO1)C(OC(=O)CCC(=O)O)C1CO1 (configuration not stated)", "HCT-116 colon", 99.2],
  ["NC(=S)CN1CCOCC1", "HCT-116 colon", 109],
  ["O=C1C=CC(=O)N1c1ccc(I)cc1Cl", "HCT-116 colon", 96.9],
  ["CCOC(=O)c1[nH]c(C)c(C(=O)O)c1C", "HCT-116 colon", 116]
]}

Parameter requested: growth. Apply to each item below.
1. O=C1NC(=O)C2C(=O)NC(=O)C1C21CCc2ccccc21 (configuration not stated)
2. CCCOC(=O)C(O)c1ccccc1 (configuration not stated)

[96.7, 97.8]

---

I'd appreciate it if you could supply growth values for the items below.
Test system: MALME-3M melanoma
Assay: NCI-60 one-dose screen, 48 h (100 = growth as untreated, 0 = no growth, -100 = all killed)
Conditions: 10 µM
Protocol: Cells are grown in 96 well plates and exposed to the test compound for 48 hours. Compounds are tested at a single concentration, which is 10^-5 M for most compounds. The reported endpoint is percent growth (GI% or GIPRCNT), where numbers from 0 - 100% represent growth inhibition, and numbers from -100% - 0 represent cell death. For example, a value of 40 represents 60% growth inhibition. A value of 0 means no net growth occurred over the course of the experiment. […]
Compounds without any hit were thinned out: in the full panel of roughly 83,000, 20% have a hit.
One number for each entry, in %.

These solved cases illustrate the format of a correct answer.
{"columns": ["molecule", "measure-name", "value-observed"],
 "data": [
  ["N#CCCN(CCCN1CCOCC1)CN1C(=O)c2ccccc2C1=O", "growth", 87.6],
  ["COc1ccccc1N=Nc1c(O)ccc2cc(S(=O)(=O)O)ccc12", "growth", 109],
  ["CC(=O)c1ccc(C(C)(C)C)cc1", "growth", 102],
  ["O=c1[nH]nc(SC2CCCCC2)c(=O)[nH]1", "growth", 95.7],
  ["Cc1cc(Cc2cc(C)c(N)cc2N)c(N)cc1N", "growth", 95.2],
  ["CCOC(=O)C(=O)C=P(c1ccccc1)(c1ccccc1)c1ccccc1", "growth", 102]
]}

Parameter requested: growth. Apply to each item below.
1. O=C(Nc1ccccc1)OCCc1ccccc1
2. CC(CN1CCCCC1)NC(=O)c1scnc1-c1ccccc1 (stereo not drawn)
3. CC(C)=CC(=O)OC(=O)C=C(C)C
4. CS(=O)CC1=NC(=N)N=C1CS(C)=O (stereo not drawn)
5. NCCC(=O)c1ccc(Cl)cc1
6. CCOC(=O)C(O)C(O)C(=O)OCC (stereo not drawn)

[107, 106, 101, 98, 109, 106]

Find the recorded growth belonging to NC(=O)NC(=O)c1ccc(Cl)cc1 and report it.
92

---

tested on: ACHN renal; assay: NCI-60 one-dose screen, 48 h (100 = growth as untreated, 0 = no growth, -100 = all killed); settings: 10 µM
About 83,000 compounds went through this panel and 20% of them were active in at least one assay; those are over-represented in the sample as a whole. Active and inactive are the calls of the source. Rule for the calls: active = growth percent below 10; inactive = the rest.
measure-name: growth

These solved cases illustrate the format of a correct answer.
{"columns": ["input-smiles", "target-of-assay", "value-observed"],
 "data": [
  ["NC(=S)NN=C1CCCC1", "ACHN renal", "107% (inactive)"],
  ["c1ccc(Sc2ccccc2)cc1", "ACHN renal", "108% (inactive)"],
  ["NNc1ccccc1C(=O)O", "ACHN renal", "98.9% (inactive)"],
  ["c1ccc(CN2COc3c(ccc4c3OCN(Cc3ccccc3)C4)C2)cc1", "ACHN renal", "12.3% (inactive)"],
  ["CC(C)=C(NC(=O)c1ccccc1)C(=O)O", "ACHN renal", "106% (inactive)"]
]}

Parameter requested: growth. Apply to each item below.
1. O=c1[nH]nc(SC2CCCCC2)c(=O)[nH]1
2. CN(C)c1ccc2oc(=O)c3ccccc3c2c1

113% (inactive)
103% (inactive)

Find the recorded growth belonging to CCCCOC(=O)c1ccc(C(C)C)cc1 and report it.
104% (inactive)

---

I'd appreciate it if you could supply growth values for the items below.
test system: OVCAR-4 ovarian; assay: NCI-60 one-dose screen, 48 h (100 = growth as untreated, 0 = no growth, -100 = all killed); settings: 10 µM
About 83,000 compounds went through this panel and 20% of them were active in at least one assay; those are over-represented in the sample as a whole.
Answers are plain numbers, in %.

These solved cases illustrate the format of a correct answer.
{"columns": ["molecule", "units-of-measure", "growth"],
 "data": [
  ["OC1CCCc2ccccc21 (stereo not given)", "%", 99.2],
  ["CCCCCCCCCCCCCC(=O)Oc1ccc[nH]c1=O", "%", 102]
]}

Parameter requested: growth. Apply to each item below.
1. CCOC(=O)C1OC1c1ccccc1 (stereo not given)
2. Cc1ccc(C)n1-c1ccsc1C(=O)NNC(=O)C(Cl)Cl
3. CCC(C#N)(CC)c1ccccc1
4. c1ccc(Cc2ccccc2)cc1

1: 101; 2: 96.9; 3: 113; 4: 109

---

test system: COLO 205 colon; test: NCI-60 one-dose screen, 48 h (100 = growth as untreated, 0 = no growth, -100 = all killed); conditions: 10 µM
About 83,000 compounds went through this panel and 20% of them were active in at least one assay; those are over-represented in the sample as a whole.
measure-name: growth (%)
Answers are plain numbers, in %.

{"columns": ["compound", "growth / %"],
 "data": [
  ["CCOC(=O)C(CCC(C)C)C(=O)OCC", 110],
  ["COc1ccccc1N1CCN(C(=S)Nc2ccccc2)CC1", 97.4],
  ["CC1(C)S(=O)(=O)OCCOS1(=O)=O", 116],
  ["COCCCC/C(=N\\OCCN)c1ccc(C(F)(F)F)cc1", 101],
  ["Nc1ccccc1SC(CC(=O)c1ccccc1)c1c(Cl)cccc1Cl (stereo not drawn)", 91.8]
]}

Parameter requested: growth. Apply to each item below.
1. NC(C(=O)O)c1ccc([N+](=O)[O-])cc1 (stereo not drawn)
2. O=c1cc2oc3cc(O)c(O)cc3c(-c3ccccc3O)c-2cc1O
3. OCc1ccc(-c2ccc(-c3ccc(CO)s3)o2)s1
4. O=[N+]([O-])c1ccc(-c2ncc(-c3ccc(Br)cc3)o2)cc1
5. NCCC(=O)c1ccc(Cl)cc1
6. COC(=O)c1cccnc1

1: 104; 2: 126; 3: 13.1; 4: 134; 5: 106; 6: 95.3

Parameter requested: growth. Apply to each item below.
1. N#CSc1cc(S(N)(=O)=O)ccc1N
2. CN(C)C(C)(C)CC(C)(C)C

1. 113
2. 106

---

tested on: TK-10 renal; test: NCI-60 one-dose screen, 48 h (100 = growth as untreated, 0 = no growth, -100 = all killed); details: 10 µM unless noted
About 83,000 compounds went through this panel and 20% of them were active in at least one assay; those are over-represented in the sample as a whole.
measure-name: growth (%)
Give bare numbers, in %.

{"columns": ["molecule", "growth, %"],
 "data": [
  ["COc1cc(C(=O)N/N=C/c2cccc([N+](=O)[O-])c2)cc(OC)c1OC", 81.1],
  ["C/C=C/CC(C)C(O)C1C(=O)NC(CC)C(=O)N(C)CC(=O)N(C)C(CC(C)C)C(=O)NC(C(C)C)C(=O)N(C)C(CC(C)C)C(=O)NC(C)C(=O)NC(C)C(=O)N(C)C(CC(C)C)C(=O)N(C)C(CC(C)C)C(=O)N(C)C(C(C)C)C(=O)N1C (stereo unspecified)", 31.3],
  ["CC(C)OC(C(=O)O)c1ccccc1 (stereo unspecified)", 98.4],
  ["CC1SC(N)=NC1=O (stereo unspecified)", 108],
  ["NC(=O)NC(=O)c1ccc(Cl)cc1", 100]
]}

Parameter requested: growth. Apply to each item below.
1. CCC/C=C(\C)C(C)(C#N)C(=O)OCC (stereo unspecified)
2. COc1cc(-c2ccc(NC(=O)NC3CC3)c(OC)c2)ccc1NC(=O)NC1CC1
3. CC(=O)OC(OC(C)=O)C1CCCO1 (stereo unspecified)
4. CCC(O)CC(CC)CO (stereo unspecified)

1. 108
2. 99.6
3. 103
4. 111

Parameter requested: growth. Apply to each item below.
1. C=CCNc1ccccc1
2. Cc1ccc(C)n1-c1ccsc1C(=O)NNC(=O)C(Cl)Cl

1: 95.7; 2: 112
